This collection of values is drawn from patent US20240116985A1.

# Target Of Assay: T1, full-length beta-Catenin (Uniprot ID P35222) (Homo sapiens (Human), UniProt P35222 1-781)
# T1 construct: The assay text says 'full-length beta-Catenin (Uniprot ID P35222)'; also called bCat; B-Catenin
# T1 sequence: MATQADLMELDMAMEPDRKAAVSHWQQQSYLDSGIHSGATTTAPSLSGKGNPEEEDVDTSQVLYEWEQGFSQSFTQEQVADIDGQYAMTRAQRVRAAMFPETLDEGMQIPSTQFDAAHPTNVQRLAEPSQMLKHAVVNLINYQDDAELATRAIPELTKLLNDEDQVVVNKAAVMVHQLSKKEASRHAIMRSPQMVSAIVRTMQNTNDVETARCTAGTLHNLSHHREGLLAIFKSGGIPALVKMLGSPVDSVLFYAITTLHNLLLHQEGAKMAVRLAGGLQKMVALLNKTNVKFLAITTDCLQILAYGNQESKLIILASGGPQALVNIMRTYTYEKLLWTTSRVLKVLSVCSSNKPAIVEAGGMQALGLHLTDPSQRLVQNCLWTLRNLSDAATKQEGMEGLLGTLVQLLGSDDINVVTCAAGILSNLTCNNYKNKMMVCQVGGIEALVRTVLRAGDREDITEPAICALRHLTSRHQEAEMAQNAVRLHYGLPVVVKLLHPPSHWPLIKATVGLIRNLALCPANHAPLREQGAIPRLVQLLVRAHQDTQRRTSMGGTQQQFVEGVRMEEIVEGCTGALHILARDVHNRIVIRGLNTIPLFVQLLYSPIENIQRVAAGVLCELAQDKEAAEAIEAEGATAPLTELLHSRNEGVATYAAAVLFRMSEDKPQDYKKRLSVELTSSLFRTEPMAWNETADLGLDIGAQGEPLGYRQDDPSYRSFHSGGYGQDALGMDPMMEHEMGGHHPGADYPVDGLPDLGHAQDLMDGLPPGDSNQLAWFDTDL
# Assay: fluorescence polarization competition; full-length beta-catenin, competitor 5FAM-TCF4(10-53) probe
pEC50: −log10 of the molar value. Starred links: 1 amine or outer side, 2 acyl side, 3 side chain; linkers in the order of their positions; H or OH if unused. Positions of bridges follow the written chain, without caps; N, C: chain ends. Non-standard residues stand in square brackets, D forms with d. Primed or numbered codes have the meaning given here. *: point of attachment. B5(24) = 2-amino-2-(pent-4-en-1-yl)hept-6-enoic acid, 2,2-bis(4-pentenyl)glycine (stitching residue), C=CCCCC(CCCC=C)(N[*:1])C(=O)[*:2]; B5(4) = 2,2-bis(4-pentenyl)glycine = 2-amino-2-(pent-4-en-1-yl)hept-6-enoic acid (stitching residue), C=CCCCC(CCCC=C)(N[*:1])C(=O)[*:2]; PyrS = (S)-1-((allyloxy)carbonyl)-3-aminopyrrolidine-3-carboxylic acid, C=CCOC(=O)N1CC[C@@](N[*:1])(C(=O)[*:2])C1; B5 = 2-amino-2-(pent-4-en-1-yl)hept-6-enoic acid, C=CCCCC(CCCC=C)(N[*:1])C(=O)[*:2]; Bta = N[C@@H](Cc1csc2ccccc12)C(=O)O; αAllylPro = C=CC[C@@]1(C(=O)O)CCCN1; Azidoacetyl = [N-]=[N+]=NCC(=O)*; R8 = C=CCCCCCC[C@@](C)(N)C(=O)O; S8 = C=CCCCCCC[C@](C)(N)C(=O)O; Picolinoyl = O=C(c1ccccn1)*
Measured pEC50 by item

Binder	pEC50
Ac-[αAllylPro]DI[B5(4)]DEK(Azidoacetyl)AFQ[S8]F[Bta]Q-NH2 (staple 1-4, 4-11; not fully specified; printed as Ac-PL3-Asp-Ile-B5-Asp-Glu-[AzAc]Lys-Ala-Phe-Gln-S8-Phe-BztA-Gln-NH2, Stapled peptide composition) [I-591]	7.19
Ac-[αAllylPro]DI[B5(24)]FEAAFQ[S8]D[Bta]Q-NH2 (staple 1-4, 4-11, Stapled peptide composition) [I-587]	5.30
Ac-[αAllylPro]FI[B5(24)]DEAADQ[S8]F[Bta]Q-NH2 (staple 1-4, 4-11, Stapled peptide composition) [I-588]	5.30
Ac-[αAllylPro]DI[B5]DEAK(Azidoacetyl)FQ[S8]F[Bta]Q-NH2 (staple 1-4, 4-11, Stapled peptide composition) [I-593]	7.17
Ac-FDA[R8]DDAAFQ[PyrS]FWQ-NH2 (staple 4-11; not fully specified; printed as Ac-Phe-Asp-Ala-R8-Asp-Asp-Ala-Ala-Phe-Gln-PyrS-Phe-Trp-Gln-NH2, Stapled peptide composition) [I-579]	5.30
XDIXDEAAFQXFXQK (not fully specified; Ac-PL3-Asp-Ile-B5-Asp-Glu-Ala-Ala-Phe-Gln-S8-Phe-BztA-Gln-[AzAc]Lys-NH2; stapled PL3(1)-B5(4) and B5(4)-S8(11) by olefin metathesis, Stapled peptide composition) [I-596]	6.95
XDAXDDAAFQXFXQ (not fully specified; Ac-PL3-Asp-Ala-B5-Asp-Asp-Ala-Ala-Phe-Gln-S8-Phe-BztA-Gln-NH2; stapled PL3(1)-B5(4) and B5(4)-S8(11) by olefin metathesis, Stapled peptide composition; the description may be misprinted) [I-578]	5.30
XDIXDEAAFQXFXQ (Bnc-PL3-Asp-Ile-B5-Asp-Glu-Ala-Ala-Phe-Gln-S8-Phe-BztA-Gln-NH2; stapled PL3(1)-B5(4) and B5(4)-S8(11) by olefin metathesis, Stapled peptide composition; N-terminal cap Bnc; same description as I-600, later eluting HPLC peak (staple isomer)) [I-601]	6.38
XDKXDEAAFQXFXQ (not fully specified; Ac-PL3-Asp-[AzAc]Lys-B5-Asp-Glu-Ala-Ala-Phe-Gln-S8-Phe-BztA-Gln-NH2; stapled PL3(1)-B5(4) and B5(4)-S8(11) by olefin metathesis, Stapled peptide composition; same description as I-590, earlier eluting HPLC peak (staple isomer)) [I-589]	7.32
XDLXDEAAFNXFXQ (not fully specified; Ac-PL3-Asp-Leu-B5-Asp-Glu-Ala-Ala-Phe-Asn-S8-Phe-BztA-Gln-NH2; stapled PL3(1)-B5(4) and B5(4)-S8(11) by olefin metathesis, Stapled peptide composition; same description as I-577, earlier eluting HPLC peak (staple isomer)) [I-576]	7.64
Picolinoyl-[αAllylPro]DI[B5]DEAAFQ[S8]F[Bta]Q-NH2 (staple 1-4, 4-11, Stapled peptide composition; N-terminal cap Pic) [I-599]	6.86
